- Tested on: 786-0 renal
- protocol_description: NCI tumour cell line growth inhibition, 48 h
Could you please report measured TGI for the items listed next?

Please give TGI for each item listed below.
1. CC1C(c2ccc(Cl)cc2)c2cc3c(cc2OC1N1CCOCC1)OCO3 (stereo not drawn)
2. CC(=O)C1=C(O)C2C3c4c[nH]c5cccc(c45)CC3C(C)(C)N2C1=O (stereo not drawn)
3. CC(=O)NC(CC(C)C)C(=O)NC(Cc1ccccc1)C(=S)N1CCCC1 (stereo not drawn)

1: > 100 µM; 2: > 100 µM; 3: > 100 µM

---

- Tested on: UACC-62 melanoma
- protocol_description: NCI tumour cell line growth inhibition, 48 h
Could you please report measured TGI for the items listed next?

Please give TGI for each item listed below.
1. COc1ccc(N(C)c2nc(N)nc3sc4c(c23)CCCC4)cc1
2. CC(C)(C)OC(=O)NCCCCC(NC(=O)c1ccccc1)C(N)=O (configuration not stated)
3. CC(=O)NC(CC(C)C)C(=O)NC(Cc1ccccc1)C(=S)N1CCCC1 (configuration not stated)
4. COc1ccc(N=N/C(C(=O)C(F)(F)F)=C(\O)c2ccc(Cl)cc2)cc1

1: 15.8 µM; 2: > 100 µM; 3: > 100 µM; 4: > 100 µM

Please give TGI for each item listed below.
1. Cc1c(/C=N/N(C)C)oc2c1cc(O)c1ncccc12
2. COC(=O)c1ccc(Nc2nc3nc[nH]c3c(=O)[nH]2)cc1
3. CCN(CC)c1ccc2cc(C(=O)Nc3ccccn3)c(=N)oc2c1

1: 45.9 µM; 2: > 100 µM; 3: > 100 µM

Please give TGI for each item listed below.
1. O=C(NNc1ccccc1)/C(=C/c1ccc2c(c1)OCO2)NC(=O)c1ccccc1
2. CSC1NC(c2ccc(Cl)cc2)=C(C#N)C(=O)N1C1OCC(OC(C)=O)C(OC(C)=O)C1OC(C)=O (configuration not stated)
3. CC1=NC(=Cc2ccc([N+](=O)[O-])cc2)C(=O)N1n1c(-c2ccccc2)nc2ccccc2c1=O
4. CC(=O)C1=C(O)C2C3c4c[nH]c5cccc(c45)CC3C(C)(C)N2C1=O (configuration not stated)
5. COc1ccc(C(OCC2OC(n3ccc(NC(=O)c4ccccc4)nc3=O)CC2OP2(=S)SCCS2)(c2ccccc2)c2ccc(OC)cc2)cc1 (configuration not stated)
6. CC[C@H](C)[C@H](NC(=O)CN(C)C)C(=O)N(C)[C@H](C[C@@H](OC(C)=O)c1nc(C(=O)NC23CC(C(=O)OC)(C2)C3)cs1)C(C)C
7. COc1cc(-c2ccccc2N)c2cccnc2c1OC
8. CC(=O)NNc1nc(C)c(C(=O)NNC(=O)C(=O)Nc2ccc(Cl)cc2Cl)s1

1: > 100 µM; 2: > 100 µM; 3: > 100 µM; 4: > 100 µM; 5: 34.9 µM; 6: > 25 µM; 7: 24.2 µM; 8: 57.4 µM

Please give TGI for each item listed below.
1. Cc1cc(N2CCN(C)CC2)n2nc(-c3ccc(Cl)cc3)nc2n1
2. COc1ccc2oc(=O)c(-c3csc(C)n3)cc2c1

> 100 µM
73.1 µM
